Test system: 991263-137-R1-J2-PDC complex spheroid viability
Protocol Text: Anticancer human tumor 991263-137-R1-J2-PDC patient-derived colon adenocarcinoma cell line growth inhibition [POLQ]
Measurement Context: second compound 0.1 µM; first compound 0.01 µM; stronger effect = lower value
Measured viability, T/C of individual entries
Recorded Metric: viability, T/C (%)

Compound | Quantitative Result
Cn1ncnc1[C@H]1c2n[nH]c(=O)c3cc(F)cc(c23)N[C@@H]1c1ccc(F)cc1 + Nc1ccc(C#CCN(C(=O)Cc2ncc(C(F)(F)F)cc2C(F)(F)F)c2ccc(F)cc2)nn1 | 107
COc1cccc(OCCCN)c1-c1cc(Nc2cnc(C#N)cn2)n[nH]1 + COC1C(OC(N)=O)C(O)C(Oc2ccc3c(O)c(NC(=O)c4ccc(O)c(CC=C(C)C)c4)c(=O)oc3c2C)OC1(C)C | 89.4
C=CCn1c(=O)c2cnc(Nc3ccc(N4CCN(C)CC4)cc3)nc2n1-c1cccc(C(C)(C)O)n1 + Nc1ccc(C#CCN(C(=O)Cc2ncc(C(F)(F)F)cc2C(F)(F)F)c2ccc(F)cc2)nn1 | 105

====

System: 991263-137-R1-J2-PDC complex spheroid viability
Protocol Text: Anticancer human tumor 991263-137-R1-J2-PDC cell line growth inhibition [POLQ];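 further: spheroids exposed to compounds for 7 days before readout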
Measurement Context: curve of first compound; second compound 10 µM
Quick reference for IC50 among some compounds

Compound | IC50
CC1COCCN1c1cc(C2(S(C)(=N)=O)CC2)nc(-c2ccnc3[nH]ccc23)n1 (stereo unspecified) + Cc1cccc(N(C)C(=O)C2C(O)CCN2c2nc(C)cc(C(F)(F)F)c2C#N)c1 | > 10000 nM
COc1cc2cc(C(=O)CCC(=O)O)sc2cc1OC + Cc1cccc(N(C)C(=O)C2C(O)CCN2c2nc(C)cc(C(F)(F)F)c2C#N)c1 | > 10000 nM
CCc1cc2c(N3CCc4c(cc(Cn5ccnc5)cc4-c4cn(C)nc4C(F)(F)F)C3=O)ccnc2c(OC)n1 + Cc1cccc(N(C)C(=O)C2C(O)CCN2c2nc(C)cc(C(F)(F)F)c2C#N)c1 | > 10000 nM
COc1cc(C2c3cc4c(cc3C(OC3OC5COC(C)OC5C(O)C3O)C3COC(=O)C23)OCO4)cc(OC)c1O (stereo unspecified) + Cc1cccc(N(C)C(=O)C2C(O)CCN2c2nc(C)cc(C(F)(F)F)c2C#N)c1 | > 10000 nM
C#Cc1c(F)ccc2cc(O)cc(-c3ncc4c(N5CC6CCC(C5)N6)nc(OCC56CCCN5CC(F)C6)nc4c3F)c12 (stereo unspecified) + COC1C(OC(N)=O)C(O)C(Oc2ccc3c(O)c(NC(=O)c4ccc(O)c(CC=C(C)C)c4)c(=O)oc3c2C)OC1(C)C | > 10000 nM
O=C(c1cc(Cc2n[nH]c(=O)c3ccccc23)ccc1F)N1CCN(C(=O)C2CC2)CC1 + Cc1cccc(N(C)C(=O)C2C(O)CCN2c2nc(C)cc(C(F)(F)F)c2C#N)c1 | > 10000 nM
CCc1c2c(nc3ccc(O)cc13)-c1cc3c(c(=O)n1C2)COC(=O)[C@]3(O)CC + Nc1ccc(C#CCN(C(=O)Cc2ncc(C(F)(F)F)cc2C(F)(F)F)c2ccc(F)cc2)nn1 | 94.1 nM
CNCc1ccc(-c2[nH]c3cc(F)cc4c3c2CCNC4=O)cc1 + COC1C(OC(N)=O)C(O)C(Oc2ccc3c(O)c(NC(=O)c4ccc(O)c(CC=C(C)C)c4)c(=O)oc3c2C)OC1(C)C | > 10000 nM
CCc1cc2c(N3CCc4c(cc(Cn5ccnc5)cc4-c4cn(C)nc4C(F)(F)F)C3=O)ccnc2c(OC)n1 + COC1C(OC(N)=O)C(O)C(Oc2ccc3c(O)c(NC(=O)c4ccc(O)c(CC=C(C)C)c4)c(=O)oc3c2C)OC1(C)C | > 10000 nM
Cn1ncnc1[C@H]1c2n[nH]c(=O)c3cc(F)cc(c23)N[C@@H]1c1ccc(F)cc1 + Cc1cccc(N(C)C(=O)C2C(O)CCN2c2nc(C)cc(C(F)(F)F)c2C#N)c1 | > 100 nM
COc1cc(C2c3cc4c(cc3C(OC3OC5COC(C)OC5C(O)C3O)C3COC(=O)C23)OCO4)cc(OC)c1O (stereo unspecified) + COC1C(OC(N)=O)C(O)C(Oc2ccc3c(O)c(NC(=O)c4ccc(O)c(CC=C(C)C)c4)c(=O)oc3c2C)OC1(C)C | > 10000 nM
CC1COCCN1c1cc(-c2ccnn2C)c2ccnc(-c3ccn[nH]3)c2n1 (stereo unspecified) + Cc1cccc(N(C)C(=O)C2C(O)CCN2c2nc(C)cc(C(F)(F)F)c2C#N)c1 | 851 nM
C=CC(=O)N1CCN(c2nc(=O)n(-c3c(C)ccnc3C(C)C)c3nc(-c4c(O)cccc4F)c(F)cc23)C(C)C1 (stereo unspecified) + Cc1cccc(N(C)C(=O)C2C(O)CCN2c2nc(C)cc(C(F)(F)F)c2C#N)c1 | > 10000 nM
CC1COCCN1c1cc(C2(S(C)(=N)=O)CC2)nc(-c2ccnc3[nH]ccc23)n1 (stereo unspecified) + Nc1ccc(C#CCN(C(=O)Cc2ncc(C(F)(F)F)cc2C(F)(F)F)c2ccc(F)cc2)nn1 | > 10000 nM
O=C(c1cc(Cc2n[nH]c(=O)c3ccccc23)ccc1F)N1CCN(C(=O)C2CC2)CC1 + Nc1ccc(C#CCN(C(=O)Cc2ncc(C(F)(F)F)cc2C(F)(F)F)c2ccc(F)cc2)nn1 | > 10000 nM
O=c1[nH]cc(F)c(=O)[nH]1 + Nc1ccc(C#CCN(C(=O)Cc2ncc(C(F)(F)F)cc2C(F)(F)F)c2ccc(F)cc2)nn1 | > 10000 nM
Nc1ccn(C2OC(CO)C(O)C2(F)F)c(=O)n1 (stereo unspecified) + COC1C(OC(N)=O)C(O)C(Oc2ccc3c(O)c(NC(=O)c4ccc(O)c(CC=C(C)C)c4)c(=O)oc3c2C)OC1(C)C | 1110 nM
COc1cccc(OCCCN)c1-c1cc(Nc2cnc(C#N)cn2)n[nH]1 + Nc1ccc(C#CCN(C(=O)Cc2ncc(C(F)(F)F)cc2C(F)(F)F)c2ccc(F)cc2)nn1 | 87.4 nM
COc1cccc2c1C(=O)c1c(O)c3c(c(O)c1C2=O)CC(O)(C(=O)CO)CC3OC1CC(N)C(O)C(C)O1 (stereo unspecified) + Cc1cccc(N(C)C(=O)C2C(O)CCN2c2nc(C)cc(C(F)(F)F)c2C#N)c1 | 790 nM
Cn1ncnc1[C@H]1c2n[nH]c(=O)c3cc(F)cc(c23)N[C@@H]1c1ccc(F)cc1 + Nc1ccc(C#CCN(C(=O)Cc2ncc(C(F)(F)F)cc2C(F)(F)F)c2ccc(F)cc2)nn1 | > 100 nM
CC1COCCN1c1cc(C2(O)CC3CCC(C2)O3)c2cnn(-c3ccn[nH]3)c2n1 (stereo unspecified) + Nc1ccc(C#CCN(C(=O)Cc2ncc(C(F)(F)F)cc2C(F)(F)F)c2ccc(F)cc2)nn1 | 882 nM
